Tested on: SR leukemia
Assay: NCI-60 one-dose screen, 48 h (100 = growth as untreated, 0 = no growth, -100 = all killed)
Settings: 10 µM unless noted
About 83,000 compounds went through this panel and 20% of them were active in at least one assay; those are over-represented in the sample as a whole.
outcome_measure: growth (%)
Numbers only; they are read as %.

Asked: Param item = N#Cc1c(-c2ccc(F)cc2)nc(SCc2ccccc2)nc1N1CCNCC1 ; retrieve measured growth.
Given back: -10.3

Asked: Proceed to O=C(NN1C(=O)/C(=C/C=C/c2ccc([N+](=O)[O-])o2)SC1=S)c1ccncc1
Given back: -24.7

Asked: Proceed to O=C(CSc1nc2ccccc2c(=O)[nH]1)NNC(=O)c1ccccc1Cl
Given back: 113

Asked: Proceed to COc1ccc(N=Nc2c(N)nn3c(-c4cc5cc(Br)ccc5oc4=O)ccnc23)cc1
Given back: 28

Asked: Proceed to O=C1/C(=C/c2cnc(-c3ccccc3)s2)SC(=S)N1Cc1ccc2c(c1)OCO2
Given back: 67.5

Asked: Proceed to CC[C@]12C=CCN3CC[C@]4(C(=C(C(=O)OC)C1)Nc1cc(OC)c([C@@H]5[C@H]6O[C@H]6[C@@]6(CC)CC(C(=O)OC)=C7Nc8cc(O)ccc8[C@@]78CCN5[C@@H]68)cc14)[C@@H]32
Given back: -30.7

---

Test system: MDA-MB-435 melanoma
Assay: NCI-60 one-dose screen, 48 h
Conditions: 10 µM unless noted
The panel holds about 83,000 compounds, 20% with a hit somewhere; the sample as a whole holds those more often. The source made the active and inactive calls. The calls were made as follows: active = growth percent below 10; inactive = the rest.
Answer with one of the outcomes given here: active, inactive

Asked: Could you please tell me the result logged for CCCN(CCC)S(=O)(=O)c1ccc(C(=O)O)cc1.CCCN(CCC)S(=O)(=O)c1ccc(C(=O)O)cc1.[Cl][Pt+2][Cl].[NH2-].[NH2-] in this assay?
Given back: active

Asked: Proceed to O=C1N/C(=N\c2nccs2)S/C1=C\c1ccc([N+](=O)[O-])cc1
Given back: inactive

Asked: Proceed to COC(=O)c1cc(C(=O)CBr)n2c1ccc1c3ccccc3ccc12
Given back: inactive

Asked: Proceed to CC(C)C[C@H](NC(=O)[C@@H]1CCCCCCCCCCC(=O)N[C@@H](CC(=O)N2CCC[C@@H]2C2CCCC2)C(=O)N1)B(O)O
Given back: active

Asked: Proceed to CC1=C(C(=O)Nc2ccccc2)C(c2cccc3ccccc23)n2c(nc3ccccc32)N1 (centres undefined)
Given back: inactive

Asked: Proceed to Cc1ccc(Nc2nnc(-c3c[nH]c4ccccc34)o2)c(C)c1
Given back: active

Asked: Proceed to CCN1C(=O)N(CC)C2NNC(Sc3c(C(=O)O)c4ccccc4n(CC(C)C)c3=O)=NC21 (centres undefined)
Given back: active

Asked: Proceed to COc1ccc(NC(=O)CSc2nnc(-c3ccc(-c4nc5ccccc5[nH]4)cc3)o2)cc1
Given back: inactive

Asked: Proceed to CC(C)(C)C(=O)C1CC(C#N)=C2C=Cc3c(ccc4ccccc34)N21 (centres undefined)
Given back: inactive
